Values from patent US5886178A

- tgt: COX II (Homo sapiens, UniProt P35354)
- Sequence (P35354 18-604): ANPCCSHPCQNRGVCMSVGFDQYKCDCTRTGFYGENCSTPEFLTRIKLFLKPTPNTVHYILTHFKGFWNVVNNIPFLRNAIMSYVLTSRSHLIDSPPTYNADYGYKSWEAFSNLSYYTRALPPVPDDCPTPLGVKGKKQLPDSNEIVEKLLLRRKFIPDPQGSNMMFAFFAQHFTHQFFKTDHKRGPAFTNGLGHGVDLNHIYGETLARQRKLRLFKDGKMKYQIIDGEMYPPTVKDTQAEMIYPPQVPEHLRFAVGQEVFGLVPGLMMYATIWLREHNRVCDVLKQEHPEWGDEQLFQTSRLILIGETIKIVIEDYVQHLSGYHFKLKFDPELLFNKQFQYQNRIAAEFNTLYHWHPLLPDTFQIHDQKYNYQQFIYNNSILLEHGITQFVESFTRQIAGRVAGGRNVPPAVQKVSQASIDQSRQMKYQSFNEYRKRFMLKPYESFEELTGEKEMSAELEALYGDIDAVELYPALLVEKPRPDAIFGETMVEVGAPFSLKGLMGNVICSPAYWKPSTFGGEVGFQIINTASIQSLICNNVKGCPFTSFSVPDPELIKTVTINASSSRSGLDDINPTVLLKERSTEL
- experimental protocol: Inhibition of COX II in vitro, partially purified enzyme, radiometric assay
- Format: biochemical
- Set-up: made in house
- assay setup: 20 micromolar arachidonic acid
property name: IC50 (nM)

Please review the entries below; each comes with its answer.
In: Identify IC50 associated with the compound COc1ccc(C(=O)c2c(Br)cc(C)cc2Br)cc1Cc1ccc(=O)[nH]n1 [Cpd 39]
Out: 1000

In: Indicate the recorded IC50 value for this compound: O=C(c1ccc(F)c(Cc2ccc(=O)[nH]n2)c1)c1c(Cl)cc(Cl)cc1Cl [Cpd 77]
Out: 140

In: Item COc1ccc(C(=O)c2c(Cl)cc(Cl)cc2Cl)cc1Cc1ccc(=O)n(C)n1 [Cpd 31] : provide IC50
Out: 1300

(P) COc1ccc(C(=O)c2cccc(Cc3ccc(=O)[nH]n3)c2C)cc1 [Cpd 11]
(Q) O=C(c1ccc(Cl)c(Cc2ccc(=O)[nH]n2)c1)c1c(Cl)cc(Cl)cc1Cl [Cpd 73]
In: Hi there, can you help? I need to know whether P or Q has lower measured IC50. Kindly give the label for the entry you pick.
Out: Q

* * *

- tgt: COX I (Homo sapiens, UniProt P23219)
- Sequence (P23219 24-599): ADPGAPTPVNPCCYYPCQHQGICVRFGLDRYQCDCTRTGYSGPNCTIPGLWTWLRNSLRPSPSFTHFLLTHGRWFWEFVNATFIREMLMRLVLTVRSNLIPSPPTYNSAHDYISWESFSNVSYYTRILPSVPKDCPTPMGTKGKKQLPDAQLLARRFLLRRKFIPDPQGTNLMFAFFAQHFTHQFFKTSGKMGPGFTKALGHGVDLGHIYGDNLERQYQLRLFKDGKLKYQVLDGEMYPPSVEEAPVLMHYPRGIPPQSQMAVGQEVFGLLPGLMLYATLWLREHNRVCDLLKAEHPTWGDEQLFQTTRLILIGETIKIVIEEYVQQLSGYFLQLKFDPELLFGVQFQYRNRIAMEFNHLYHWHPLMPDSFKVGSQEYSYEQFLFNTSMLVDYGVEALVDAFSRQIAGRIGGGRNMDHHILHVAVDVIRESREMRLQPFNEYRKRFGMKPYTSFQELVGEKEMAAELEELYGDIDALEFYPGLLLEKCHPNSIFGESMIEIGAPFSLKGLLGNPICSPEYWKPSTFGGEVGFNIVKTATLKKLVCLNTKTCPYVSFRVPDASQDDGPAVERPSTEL
- experimental protocol: Inhibition of COX I in vitro, partially purified enzyme, radiometric assay
- Format: biochemical
- Design: made in house
- assay setup: 20 micromolar arachidonic acid
property name: IC50 (µM)

Some solved entries appear below for comparison.
In: Report measured IC50 on COX I (Homo sapiens, UniProt P23219); entry: COc1ccc(C(=O)c2c(Cl)cc(Cl)cc2Cl)cc1Cc1ccc(=O)n(C)n1
Out: 1000

In: Specify IC50 for COc1ccc(C(=O)c2c(Cl)cc(Cl)cc2Cl)cc1Cc1ccc(=O)[nH]n1 , system COX I (Homo sapiens, UniProt P23219).
Out: 540

In: Quote COX I (Homo sapiens, UniProt P23219) IC50 for entry Cc1ccc(C(=O)c2c(Cl)cc(Cl)cc2Cl)cc1Cc1ccc(=O)[nH]n1 .
Out: 310

In: // fetch IC50 for COc1ccc(C(=O)c2c(C)cc(C)cc2C)cc1Cc1ccc(=O)[nH]n1 ; system: COX I (Homo sapiens, UniProt P23219)
Out: 100

(P) Cc1ccc(C(=O)c2c(Cl)cc(Cl)cc2Cl)cc1Cc1ccc(=O)n(C)n1
(Q) COc1ccc(C(=O)c2c(Cl)cc(C)cc2Cl)cc1Cc1ccc(=O)[nH]n1
In: Which of the two items, P and Q , has the greater recorded IC50? # answer = label of selected item
Out: P
(P: 300 µM, Q: 100 µM)

(a) O=C(c1ccc(Cl)c(Cc2ccc(=O)[nH]n2)c1)c1c(Cl)cc(Cl)cc1Cl
(b) COc1ccc(C(=O)c2c(Br)cc(C)cc2Br)cc1Cc1ccc(=O)[nH]n1
In: Of a and b , which shows the smaller IC50 value? Field: selected label. Fill in the label of the entry you choose.
Out: b

* * *

- tgt: COX I (Homo sapiens, UniProt P23219)
- experimental protocol: Inhibition of COX I in a cell based assay (human promonocytic THP cells, TXB2 ELISA)
- Design: endogenous in cells; host or cells: human promonocytic THP cells, PMA-treated
pIC50: −log10 of the molar value.
property name: pIC50

(A) O=C(c1ccc(Cl)c(Cc2ccc(=O)[nH]n2)c1)c1c(Cl)cc(Cl)cc1Cl
(B) COc1ccc(C(=O)c2cccc(Cc3ccc(=O)[nH]n3)c2C)cc1
In: Higher pIC50 between A and B ? Answer by quoting the chosen item's label.
Out: B

* * *

- tgt: COX II (Homo sapiens, UniProt P35354)
- Sequence (P35354 18-604): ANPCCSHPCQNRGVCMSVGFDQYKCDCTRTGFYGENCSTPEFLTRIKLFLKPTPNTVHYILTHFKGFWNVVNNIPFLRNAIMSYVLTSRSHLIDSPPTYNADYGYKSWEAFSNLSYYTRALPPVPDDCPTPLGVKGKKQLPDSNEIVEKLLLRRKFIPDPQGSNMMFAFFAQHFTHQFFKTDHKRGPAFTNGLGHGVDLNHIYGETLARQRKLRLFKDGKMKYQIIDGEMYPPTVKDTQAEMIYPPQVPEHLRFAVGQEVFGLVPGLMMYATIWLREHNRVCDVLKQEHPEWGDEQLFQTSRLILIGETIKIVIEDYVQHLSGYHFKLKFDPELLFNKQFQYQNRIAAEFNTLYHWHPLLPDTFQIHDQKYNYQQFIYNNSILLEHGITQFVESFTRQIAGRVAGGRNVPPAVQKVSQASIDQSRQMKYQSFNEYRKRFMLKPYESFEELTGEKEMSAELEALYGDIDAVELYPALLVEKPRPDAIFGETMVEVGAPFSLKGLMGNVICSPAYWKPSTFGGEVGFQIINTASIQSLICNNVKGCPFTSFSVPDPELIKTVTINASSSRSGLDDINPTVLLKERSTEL
- experimental protocol: Inhibition of COX II in a cell based assay (human foreskin fibroblasts, PGE2 ELISA)
- Set-up: host or cells: primary human foreskin fibroblasts (HFF), induced with PMA and human interleukin-1
- assay setup: human foreskin fibroblasts (HFF)
property name: IC50 (nM)

In: Tell me measured IC50 for COc1ccc(C(=O)c2c(Cl)cc(Cl)cc2Cl)cc1Cc1ccc(=O)[nH]n1 [Cpd 26] please.
Out: 300

In: Give recorded IC50. O=C(c1cccc(Cc2ccc(=O)[nH]n2)c1)c1c(Cl)cc(Cl)cc1Cl [Cpd 78]
Out: 300

In: For Cc1ccc(C(=O)c2c(Cl)cc(Cl)cc2Cl)cc1Cc1ccc(=O)n(C)n1 [Cpd 62] , write its IC50.
Out: 300

* * *

- tgt: COX I (Homo sapiens, UniProt P23219)
- experimental protocol: Inhibition of COX I in a cell based assay (human promonocytic THP cells, TXB2 ELISA)
- Parameters: endogenous in cells; host or cells: human promonocytic THP cells, PMA-treated
pIC50: −log10 of the molar value.
property name: pIC50

In: Determine its reported pIC50: COc1ccc(C(=O)c2c(C)cc(C)cc2C)cc1Cc1ccc(=O)[nH]n1
Out: 4.80

In: Dear colleague, please send me the reported pIC50 for COc1ccc(C(=O)c2c(Br)cc(C)cc2Br)cc1Cc1ccc(=O)[nH]n1 when you can.
Out: 4.59

In: Answer with the recorded pIC50 for the compound listed here: O=C(c1ccc(F)c(Cc2ccc(=O)[nH]n2)c1)c1c(Cl)cc(Cl)cc1Cl
Out: 4.77

In: Read the entry COc1ccc(C(=O)c2c(Cl)cc(Cl)cc2Cl)cc1Cc1ccc(=O)[nH]n1 and write its reported pIC50.
Out: 4.72
